property name: melting point

Known results for molecules:
CC(N)c1ccc(-c2cncnc2)cc1 (stereo unspecified)	47 to 49 °C
Cc1ccc(S(=O)(=O)Nc2ccccc2Br)cc1	88 to 90 °C
O=[N+]([O-])c1ccc(NCc2ccccn2)cc1	119 to 121 °C
O=C(Nc1cccc(Cl)c1N1CCOCC1)OCC(F)(F)F	74 to 76 °C
Nc1ccccc1NS(=O)(=O)c1cccs1	188 to 190 °C

Endpoint output: melting point of CN(C(=O)CCl)c1nccs1 . Value?
123 to 125 °C

Endpoint output: melting point of CCNC(=O)N1CCc2c(cccc2-n2nnc(C(=O)O)c2C)C1 . Value?
200 to 202 °C

Endpoint output: melting point of O=Cc1ccc(Oc2cnccn2)cc1 . Value?
79 to 81 °C

Endpoint output: melting point of O=C(CCl)Nc1ccc(OCc2ccccc2)cc1 . Value?
118 to 120 °C

Endpoint output: melting point of [N-]=[N+]=Nc1ccc(Cl)cc1C(F)(F)F . Value?
32 to 34 °C

###

// values below are reported melting point

Known results for compounds:
Cc1cccc(NC(=O)C=NO)c1C	110 to 112 °C
NC(=O)C1CC2CCCCC2N1 (stereo not given)	123 to 125 °C
Nc1ccc(C(=O)N2CCCCC2)c(Cl)c1	148 to 150 °C

Endpoint output: melting point of CS(=O)(=O)c1ccc(N)cc1 . Value?
132 to 134 °C

Endpoint output: melting point of CC1CCC2(CC1)NC(=O)N(CC(=O)O)C2=O (stereo not given) . Value?
223 to 225 °C

###

// values below are reported melting point

Known results for compounds:
CN(Cc1cc(C#N)ccc1F)C(=O)CCl	103 to 105 °C
CC(=O)c1cccc(N2CCCC2=O)c1	90 to 95 °C
O=C(Cc1nc2ccccc2[nH]1)NCc1ccccn1	176 to 178 °C

Endpoint output: melting point of Sc1nnc(-c2sc3ccccc3c2Cl)o1 . Value?
231 to 233 °C

Endpoint output: melting point of Cc1cc(NC(=O)CCl)n(C)n1 . Value?
115 to 117 °C

###

property name: melting point

Endpoint output: melting point of CN(C)C(=O)c1cnc(Cl)c(Cl)c1 . Value?
89 to 91 °C

Endpoint output: melting point of CC1(c2ccc(F)cc2)NC(=O)N(CC(=O)O)C1=O (stereo not drawn) . Value?
167 to 169 °C

Endpoint output: melting point of O=C(O)CCS(=O)(=O)c1ccccc1Cl . Value?
132 to 134 °C

###

// values below are reported melting point

NC(=O)c1ncccc1N	176 to 178 °C

Let's switch to this molecule now.
Endpoint output: melting point of O=c1[nH]c(CNCC2CCCO2)nc2ccccc12 (stereo unspecified) . Value?
128 to 132 °C

###

// values below are reported melting point

COc1cccc(C(N)=O)c1O	155 to 157 °C
N#CCc1ncc(C(F)(F)F)cc1Cl	34 to 36 °C

Let's switch to this compound now.
Endpoint output: melting point of CCOC(=O)c1c(N)sc(C(=O)OC(C)(C)C)c1C . Value?
108 to 110 °C

###

property name: melting point

Known results for compounds:
N#CCc1ccccc1C(=O)O	106 to 108 °C
Nc1ccc(CN2CCCC2=O)cc1	124 to 126 °C
COc1ccc(S(=O)(=O)N2CCN(C)CC2)cc1N	107 to 109 °C
CC(C)c1ccc(C(=O)CCl)cc1	44 to 46 °C
O=C(O)c1cc([N+](=O)[O-])cnc1Br	135 to 137 °C
CCc1ccc(N)c(C(=O)O)c1	127 to 129 °C
O=C(O)c1noc(-c2cc(F)ccc2F)n1	119 to 121 °C
Sc1nnc(C2CC2)s1	108 to 110 °C

Endpoint output: melting point of CC(=O)c1ccc2c3c(cccc13)CC2 . Value?
58 to 60 °C

Endpoint output: melting point of O=c1[nH]c(S)nc2ccc(F)cc12 . Value?
345 to 347 °C

Endpoint output: melting point of Cc1cccc(C)c1Nc1nnc(SCC(=O)O)s1 . Value?
207 to 209 °C
